target: Aurora A (Homo sapiens); assay: In vitro filtration assay for AURORA A inhibitory activity; assay type: biochemical; details: 200 μM Kemptide substrate, [33P]-ATP, 1 μM unlabeled ATP, 25° C., 40 minutes; read-out: Aurora A see C.2 (pIC50) (converted)
Sequence (O14965 whole entry): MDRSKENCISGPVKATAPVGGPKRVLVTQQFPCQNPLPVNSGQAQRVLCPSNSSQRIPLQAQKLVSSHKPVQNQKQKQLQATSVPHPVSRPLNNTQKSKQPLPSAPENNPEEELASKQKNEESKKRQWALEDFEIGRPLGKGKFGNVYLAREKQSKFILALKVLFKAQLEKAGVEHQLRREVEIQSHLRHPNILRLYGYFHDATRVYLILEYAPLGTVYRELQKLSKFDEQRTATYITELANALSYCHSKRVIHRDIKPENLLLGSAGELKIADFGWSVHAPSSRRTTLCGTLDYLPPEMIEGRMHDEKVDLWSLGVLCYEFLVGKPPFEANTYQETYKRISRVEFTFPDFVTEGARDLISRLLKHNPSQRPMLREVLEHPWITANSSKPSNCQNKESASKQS
Reported IC50 values are given for each entry in this list.
Answer format: value, then unit.

Worked set:
c1ccc2c(c1)CC(NCc1ccc(Nc3ncc4cnn(C5CCOCC5)c4n3)cc1)C2 [Co. No. 18] : 3.16 µM
CCN(CC)CCNC(=O)c1ccc(Nc2ncc3cnn(C4CCCCC4)c3n2)cc1 [Co. No. 6] : 1.58 µM
COCCCN(Cc1ccc(Nc2ncc3cnn(C4CCOCC4)c3n2)cc1)C(=O)OC(C)(C)C [Co. No. 13] : 0.1 µM

// switching to the query compound
The compound listed as COCCCNCc1ccc(Nc2ncc3cnn(C4CCCCC4)c3n2)cc1 [Co. No. 2] shows IC50 equal to 0.158 µM

---

biological target: Aurora-B (Homo sapiens, UniProt Q96GD4); assay: In vitro filtration assay for AURORA B inhibitory activity; type: biochemical; conditions: peptide (C(LRRWSLG)×4) substrate, [33P]-ATP, 1 μM unlabeled ATP, 25° C., 40 minutes; read-out: Aurora B see C.3 (pIC50) (converted)
Sequence (Q96GD4 whole entry): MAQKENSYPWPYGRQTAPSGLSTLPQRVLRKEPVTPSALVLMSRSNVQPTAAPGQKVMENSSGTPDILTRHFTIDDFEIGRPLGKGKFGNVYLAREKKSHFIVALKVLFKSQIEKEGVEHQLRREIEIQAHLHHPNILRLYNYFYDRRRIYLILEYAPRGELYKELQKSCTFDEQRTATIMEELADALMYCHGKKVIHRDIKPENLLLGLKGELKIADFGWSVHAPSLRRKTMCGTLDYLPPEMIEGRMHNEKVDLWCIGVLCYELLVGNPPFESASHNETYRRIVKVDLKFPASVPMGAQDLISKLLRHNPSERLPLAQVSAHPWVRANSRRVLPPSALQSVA
Decide using IC50 alone. Strictly below 0.6 µM: Y. Equal to or above 0.6 µM: N.

These solved cases illustrate the format of a correct answer.
c1ccc2c(c1)CC(NCc1ccc(Nc3ncc4cnn([C@H]5C[C@@H]6CC[C@H]5C6)c4n3)cc1)C2 [Co. No. 4] : Y
O=C(NC1Cc2ccccc2C1)c1ccc(Nc2ncc3cnn(C4CCCCC4)c3n2)cc1 [Co. No. 17] : Y
c1ccc2c(c1)CC(NCc1ccc(Nc3ncc4cnn(C5CCCCC5)c4n3)cc1)C2 [Co. No. 16] : N
CCN(CC)CC(O)COc1ccc(Nc2ncc3cnn(C4CCCCC4)c3n2)cc1 (stereo not drawn) [Co. No. 1] : N
CCN(CC)CCCOc1ccc(Nc2ncc3cnn(C4CCCCC4)c3n2)cc1 [Co. No. 7] : N
COCCCNCc1ccc(Nc2ncc3cnn([C@H]4C[C@@H]5CC[C@H]4C5)c3n2)cc1 [Co. No. 9] : Y
CC(C)(C)OC(=O)N(Cc1ccc(Nc2ncc3cnn([C@H]4C[C@@H]5CC[C@H]4C5)c3n2)cc1)C1Cc2ccccc2C1 [Co. No. 20] : N
c1ccc2c(c1)CC(NCc1ccc(Nc3ncc4cnn(C5CCOCC5)c4n3)cc1)C2 [Co. No. 18] : N

QUERY: I wonder whether CC(C)(C)OC(=O)N(Cc1ccc(Nc2ncc3cnn(C4CCCCC4)c3n2)cc1)C1Cc2ccccc2C1 [Co. No. 15] has IC50 below 0.6 µM. Can you tell?
RESULT: N

QUERY: Report whether reported IC50 is lower than 0.6 µM (strictly) for COCCCN(Cc1ccc(Nc2ncc3cnn([C@H]4C[C@@H]5CC[C@H]4C5)c3n2)cc1)C(=O)OC(C)(C)C [Co. No. 11]
RESULT: N

QUERY: Identify whether the compound c1cc2cc(Nc3ncc4cnn(C5CCCCC5)c4n3)ccc2[nH]1 [Co. No. 14] records IC50 below 0.6 µM.
RESULT: N

QUERY: Is 0.6 µM strictly greater than the compound's reported IC50? compound: CC(C)(C)OC(=O)N(c1ccc(CN(C(=O)OC(C)(C)C)C2Cc3ccccc3C2)cc1)c1ncc2cnn([C@H]3C[C@@H]4CC[C@H]3C4)c2n1 [Co. No. 19]
RESULT: N

QUERY: In the record for c1ncn(-c2ccc(Nc3ncc4cnn(C5CCCCC5)c4n3)cc2)n1 [Co. No. 3] , is IC50 less than 0.6 µM?
RESULT: N

---

target: UniProt:O14965; experiment: In vitro filtration assay for AURORA A inhibitory activity; format: biochemical; conditions: 200 μM Kemptide substrate, [33P]-ATP, 1 μM unlabeled ATP, 25° C., 40 minutes; read-out: Aurora A see C.2 (pIC50) (converted)
endpoint.label: IC50 (nM)
Output spec: scalar in nM, unitless text.

c1cc2cc(Nc3ncc4cnn(C5CCCCC5)c4n3)ccc2[nH]1 [Co. No. 14] : 316

Consider CN(C)CCOC(=O)c1ccc(Nc2ncc3cnn(C4CCCCC4)c3n2)cc1 [Co. No. 21] . Its measured IC50 is 631

The measured IC50 associated with COCCCNCc1ccc(Nc2ncc3cnn([C@H]4C[C@@H]5CC[C@H]4C5)c3n2)cc1 [Co. No. 10] reads 200

The measured IC50 associated with COCCCN(Cc1ccc(Nc2ncc3cnn(C4CCCCC4)c3n2)cc1)C(=O)OC(C)(C)C [Co. No. 8] reads 631

---

target: CDK4/cyclinD1 (Homo sapiens, UniProt P11802); assay: In vitro filtration assay for CDK4 inhibitory activity; format: biochemical; details: GST-pRb phosphorylation, [33P]-ATP, 1 μM unlabeled ATP, 25° C., 45 minutes; read-out: cdk4 filter (pIC50) (converted)
Sequence (P11802 whole entry, species assumed): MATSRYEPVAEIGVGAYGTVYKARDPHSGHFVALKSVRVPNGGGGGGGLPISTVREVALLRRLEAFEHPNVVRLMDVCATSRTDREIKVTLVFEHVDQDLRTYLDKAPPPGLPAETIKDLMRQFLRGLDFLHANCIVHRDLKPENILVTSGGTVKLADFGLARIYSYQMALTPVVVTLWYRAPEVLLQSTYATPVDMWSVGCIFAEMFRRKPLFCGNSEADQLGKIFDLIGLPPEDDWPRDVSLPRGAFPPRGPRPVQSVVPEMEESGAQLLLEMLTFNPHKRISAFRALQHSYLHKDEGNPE
Sequence (P24385 whole entry partner, species assumed): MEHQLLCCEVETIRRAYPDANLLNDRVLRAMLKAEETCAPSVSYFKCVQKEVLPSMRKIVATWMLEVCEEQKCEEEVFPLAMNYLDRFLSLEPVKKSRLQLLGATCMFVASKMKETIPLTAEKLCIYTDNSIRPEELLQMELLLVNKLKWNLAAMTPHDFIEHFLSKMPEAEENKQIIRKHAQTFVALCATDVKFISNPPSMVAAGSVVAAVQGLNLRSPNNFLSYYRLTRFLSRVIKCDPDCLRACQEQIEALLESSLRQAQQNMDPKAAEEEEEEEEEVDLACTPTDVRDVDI
endpoint.label: IC50 (nM)
Answer format: numeric, nM implied, no suffix.

c1ncn(-c2ccc(Nc3ncc4cnn(C5CCCCC5)c4n3)cc2)n1 : 15.8
COCCCNCc1ccc(Nc2ncc3cnn([C@H]4C[C@@H]5CC[C@H]4C5)c3n2)cc1 [Co. No. 10] : 31.6

For the next question, use this molecule.
Form: molecule = COCCCNCc1ccc(Nc2ncc3cnn(C4CCOCC4)c3n2)cc1 ; IC50 = 631

---

Biological target: Aurora-B (Homo sapiens)
Experiment: In vitro filtration assay for AURORA B inhibitory activity
Type: biochemical
Conditions: peptide (C(LRRWSLG)×4) substrate, [33P]-ATP, 1 μM unlabeled ATP, 25° C., 40 minutes; read-out: Aurora B see C.3 (pIC50) (converted)
Protocol: C.3 In Vitro Filtration Assay for AURORA B Inhibitory Activity Compounds of the present invention were tested in an in vitro filtration assay assessing AURORA B activity by means of its substrate-phosphorylation activity using [^33P]-ATP as phosphor donor. The radioactive phosphorylated substrate is then captured on filtermats and the incorporated [^33P] quantitated using a phosphorage storage screen. The Aurora-B kinase reaction is performed at 25° C. for 40 minutes in a 96-well microtiterplate. […]
Below: a set of entries, each annotated with reported IC50.
# unit: µM | format: bare number

COCCCNCc1ccc(Nc2ncc3cnn(C4CCOCC4)c3n2)cc1 : 7.94
COCCCNCc1ccc(Nc2ncc3cnn([C@H]4C[C@@H]5CC[C@H]4C5)c3n2)cc1 [Co. No. 10] : 0.2
COCCCN(Cc1ccc(Nc2ncc3cnn(C4CCOCC4)c3n2)cc1)C(=O)OC(C)(C)C : 0.794

Please examine the following record next.
Record CN(C)CCOC(=O)c1ccc(Nc2ncc3cnn(C4CCCCC4)c3n2)cc1 . Reported IC50: 7.94
